test system: RPMI-8226 leukemia; test: NCI-60 one-dose screen, 48 h (100 = growth as untreated, 0 = no growth, -100 = all killed); details: 10 µM unless noted
About 83,000 compounds went through this panel and 20% of them were active in at least one assay; those are over-represented in the sample as a whole.
Under this convention, satisfied denotes growth strictly below 80% and not satisfied denotes growth at or above 80%.

Compound: C/C(=N/O)c1ccc(NC(=O)Cn2nc(-c3ccc(Cl)cc3)nc2N)cc1
Label value: not satisfied
//
Compound: COc1ccc(-n2c(-c3ccc(NC(=O)CCCl)cc3)nnc2-c2cc(OC)c(OC)c(OC)c2)cc1
Label value: satisfied
//
Compound: CN(C)CC/C=C1\c2ccccc2Sc2ccc(Cl)cc21
Label value: satisfied
//
Compound: O=S(=O)(CCN1CCOCC1)Nc1cncc(-c2ccc3ncnc(Nc4ccc(F)c(Cl)c4)c3c2)c1
Label value: not satisfied
//
Compound: O=C(/C=C/c1ccco1)c1cccc(Nc2nc(Nc3ccccc3)nc(Nc3ccccc3)n2)c1
Label value: satisfied
//
Compound: O=C(Nc1cccc(-n2ccc3c(NC(=O)c4ccccc4)ncnc32)c1)Nc1ccc(Cl)c(C(F)(F)F)c1
Label value: satisfied
//
Compound: O=C(c1cc(-c2ccc(Cl)cc2)nc2ccccc12)N1N=C(c2ccccc2)CC1c1cc(-c2ccccc2)nn1-c1ccccc1 (stereo not drawn)
Label value: not satisfied
//
Compound: COC(=O)c1oc2c(C(C)=O)c(OCCN3CCCCC3)ccc2c1C
Label value: not satisfied
//
Compound: O=C1CN(CCN2CC(=O)NC(=O)C2)CC(=O)N1
Label value: not satisfied
//
Compound: NN=C(c1ccc(Cl)cc1)c1ccc(Cl)cc1
Label value: not satisfied
//
Compound: COc1cc(Br)c(-c2nc(-c3ccccc3)c(-c3ccccc3)n2Cc2ccccc2)cc1OC
Label value: satisfied
//
Compound: CC(=O)n1cc(/C=C2\N=C(c3ccc(Cl)cc3)N(c3ccc(S(=O)(=O)Nc4nccs4)cc3)C2=O)c2ccccc21
Label value: satisfied
//
Compound: Cc1cccc[n+]1CCC[n+]1ccccc1C
Label value: not satisfied

* * *

growth listing for selected compounds.
test system: NCI-H460 lung; assay: NCI-60 one-dose screen, 48 h (100 = growth as untreated, 0 = no growth, -100 = all killed); details: 10 µM unless noted
This is part of a sample that, as a whole, favours compounds with a hit. Of some 83,000 tested, about 20% had one in any assay.
Readout name: growth (%)

Query smiles: CCOc1cccc(Nc2nc(N)nc3[nH]c4ccc(O)cc4c23)c1
Value reported: 82
//
Query smiles: COc1ccccc1NC(=O)COc1ccc(/C=C2/Oc3cc4occc4c(OC)c3C2=O)cc1OC
Value reported: 114
//
Query smiles: C/C(=N\N=C1/SCC(=O)N1c1ccccc1)c1ccco1
Value reported: 123
//
Query smiles: C[C@]12CC[C@@H]3c4ccc(O)c(N)c4CC[C@H]3[C@@H]1CC[C@@H]2O
Value reported: 102
//
Query smiles: O=C(O)c1ccc(-n2cc(/C=N/Nc3ccc(Cl)cc3)c(-c3ccc(F)c(F)c3)n2)cc1
Value reported: 93.1
//
Query smiles: O=C(/C=C/c1ccco1)c1cccc(Nc2nc(Nc3ccccc3)nc(Nc3ccccc3)n2)c1
Value reported: 8.52

* * *

test system: HCT-116 colon; assay: NCI-60 one-dose screen, 48 h; conditions: 10 µM unless noted
This is part of a sample that, as a whole, favours compounds with a hit. Of some 83,000 tested, about 20% had one in any assay. Activity calls are given as the source filed them. Rule for the calls: active = growth percent below 10; inactive = the rest.
Outcome codes: yes = active, no = inactive

Query smiles: OCCOCC(F)(F)F
Study target: HCT-116 colon
Label value: no

Query smiles: O=C1/C(=C/c2cccc3cnccc23)Cc2cc(F)ccc21
Study target: HCT-116 colon
Label value: no

Query smiles: O=C(Nc1ccc(-n2ccc3c(NC(=O)c4ccccc4)nccc32)cc1)Nc1ccc(Cl)c(Cl)c1
Study target: HCT-116 colon
Label value: yes

Query smiles: C=C1C(=O)O[C@H]2[C@H]1CC/C(COC(=O)OC/C1=C/CC[C@@]3(C)O[C@H]3[C@H]3OC(=O)[C@@H](CN(C)C)[C@@H]3CC1)=C\CC[C@@]1(C)O[C@@H]21
Study target: HCT-116 colon
Label value: yes

Query smiles: CCc1cccc(-c2ccccc2)c1
Study target: HCT-116 colon
Label value: no

* * *

tested on: HCC-2998 colon; assay: NCI-60 one-dose screen, 48 h (100 = growth as untreated, 0 = no growth, -100 = all killed); settings: 10 µM unless noted
About 83,000 compounds went through this panel and 20% of them were active in at least one assay; those are over-represented in the sample as a whole. Activity calls are given as the source filed them. The calls were made as follows: active = growth percent below 10; inactive = the rest.
Entries and their measured growth follow.

Molecule: O=C(c1cc(-c2ccc(Cl)cc2)nc2ccccc12)N1N=C(c2ccccc2)CC1c1cc(-c2ccccc2)nn1-c1ccccc1 (stereo unspecified)
Study target: HCC-2998 colon
growth: 89.5% (inactive)
//
Molecule: COc1cc(NC(=O)C#Cc2ccccc2)c(OC)cc1Cl
Study target: HCC-2998 colon
growth: 90.9% (inactive)
//
Molecule: CNCCCOc1c(Br)cc(CCNC(=O)/C(Cc2ccc(OC)c(Br)c2)=N/O)cc1Br
Study target: HCC-2998 colon
growth: 46% (inactive)
//
Molecule: COc1ccc(-c2nn(-c3cccc(Cl)c3)cc2-c2cc(-c3ccc(Br)cc3)[nH]c(=O)c2C#N)cc1
Study target: HCC-2998 colon
growth: 98.4% (inactive)
//
Molecule: S=c1ssnc1-c1ccccn1
Study target: HCC-2998 colon
growth: 50.8% (inactive)
//
Molecule: C=C1C(=O)O[C@H]2[C@H]1CC/C(COC(=O)c1ccc3ccccc3c1)=C\CC[C@@]1(C)O[C@@H]21
Study target: HCC-2998 colon
growth: 42% (inactive)
//
Molecule: O=[N+]([O-])c1cccc(C2c3ccccc3Oc3ccccc32)c1
Study target: HCC-2998 colon
growth: 91.1% (inactive)
//
Molecule: Cl[C@@H]1CCO[C@H](c2cc3ccccc3c3ccccc23)C1
Study target: HCC-2998 colon
growth: 94.8% (inactive)
//
Molecule: CN1C(=O)C2(SCC(C(=O)NCC(=O)OC(C)(C)C)N2C(=O)C2CCCCC2)c2ccccc21 (stereo unspecified)
Study target: HCC-2998 colon
growth: 106% (inactive)
//
Molecule: O=C(Nc1ccc(-n2ccc3c(NC(=O)c4ccccc4)ncnc32)cc1)Nc1ccc(Cl)c(Cl)c1
Study target: HCC-2998 colon
growth: 32.7% (inactive)
//
Molecule: NC(CSC(c1ccccc1)(c1ccccc1)c1ccc(F)cc1)C(=O)O (stereo unspecified)
Study target: HCC-2998 colon
growth: 4.55% (active)
//
Molecule: NS(=O)(=O)c1ccc(CCN2C(=O)/C(=C\c3ccc(Cl)cc3)C=C2c2ccc(Oc3ccccc3)cc2)cc1
Study target: HCC-2998 colon
growth: 89% (inactive)
//
Molecule: CCCCCCCC(=O)SCC/C=C/[C@@H]1CC(=O)NCc2nc(cs2)C2=N[C@@](C)(CS2)C(=O)N[C@@H](C(C)C)C(=O)N1
Study target: HCC-2998 colon
growth: -6.96% (active)
//
Molecule: O=c1cc(Cl)[nH]c(=O)[nH]1
Study target: HCC-2998 colon
growth: 93.5% (inactive)
//
Molecule: S=C=NP1(N=C=S)=NP(N=C=S)(N=C=S)=NP(N=C=S)(N=C=S)=NP(N=C=S)(N=C=S)=N1 (stereo unspecified)
Study target: HCC-2998 colon
growth: 102% (inactive)
//
Molecule: CCN(CC)C(=O)C1CCN(C(=O)c2ccccc2)CC1
Study target: HCC-2998 colon
growth: 106% (inactive)

* * *

Test system: MOLT-4 leukemia
Test: NCI-60 one-dose screen, 48 h
Settings: 10 µM unless noted
Protocol: Growth inhibition of the MOLT-4 human tumor cell line is measured as a screen for anti-cancer activity. Cells are grown in 96 well plates and exposed to the test compound for 48 hours. Compounds are tested at a single concentration, which is 10^-5 M for most compounds. The reported endpoint is percent growth (GI% or GIPRCNT), where numbers from 0 - 100% represent growth inhibition, and numbers from -100% - 0 represent cell death. For example, a value of 40 represents 60% growth inhibition. […]
About 83,000 compounds went through this panel and 20% of them were active in at least one assay; those are over-represented in the sample as a whole. Calls of active or inactive are those of the source. Rule for the calls: active = growth percent below 10; inactive = the rest.
Possible outcomes: TRUE = active, FALSE = inactive

Compound: CN(C)C(=O)Nc1nc2cc(Cl)c(Cl)cc2[nH]1
Label value: TRUE
//
Compound: Cc1cccc(NC(=O)CCc2ccc(N3C(N)=NC(N)=NC3(C)C)cc2)c1
Label value: FALSE
//
Compound: COc1ccc(NC(=O)COCCOCCNC[C@@H]2C(=O)O[C@H]3[C@H]2CC/C(COC(=O)OC/C2=C/CC[C@@]4(C)O[C@H]4[C@H]4OC(=O)[C@@H](CN(C)C)[C@@H]4CC2)=C\CC[C@@]2(C)O[C@@H]32)c(O)c1C(N)=O
Label value: TRUE
//
Compound: Cc1ccc[n+](CC(=O)c2cccc3ccccc23)c1
Label value: FALSE
//
Compound: C/C(=N/NC(=O)Cn1c2ccccc2c2ccncc21)c1cccs1
Label value: FALSE
//
Compound: CC(C)CNCC(O)COc1ccc(C(C)(C)c2ccc(OCC(O)CNCC(C)C)cc2)cc1 (configuration not stated)
Label value: TRUE
//
Compound: Cc1[nH]c2ccc(F)cc2c1CCNC(=O)C1CCN(C(=O)c2ccc(-c3ccccc3)cc2)CC1
Label value: FALSE
//
Compound: O=S(=O)(Nc1cccc2cc(OS(=O)(=O)c3ccccc3)ccc12)c1ccccc1
Label value: FALSE
//
Compound: O=C1CN(CCN2CC(=O)NC(=O)C2)CC(=O)N1
Label value: FALSE
//
Compound: Clc1ccc(OCc2nc(-c3ccccc3)n[nH]2)c(Cl)c1
Label value: FALSE
//
Compound: CCN(CC)CCNc1ccc([N+](=O)[O-])c2sc3cc(Cl)ccc3c(=O)c12
Label value: FALSE
//
Compound: COc1ccccc1S(=O)(=O)Nc1ccc2c3c(cc(-c4ccoc4)nc13)C(=O)N2C
Label value: FALSE
//
Compound: COC(=O)/C=C/C(=O)c1cc(C)cc(C)c1O
Label value: FALSE
//
Compound: O=C(NCCNc1nccc(-c2c(-c3cccc(O)c3)nc3sccn23)n1)Nc1cc(C(F)(F)F)cc(C(F)(F)F)c1
Label value: FALSE
//
Compound: COc1cc(C(=O)C[n+]2ccccc2)ccc1OC(C)=O
Label value: FALSE
//
Compound: COc1ccc2c(c1)nnc1c3cccnc3[nH]c21
Label value: TRUE
//
Compound: COc1ccc(OCC(O)CN2CCN(c3ccc(Cl)cc3)CC2)cc1 (configuration not stated)
Label value: FALSE
//
Compound: C[C@]12O[C@H]1[C@H](O)c1c(cc(O)c3c1C(=O)c1cccc(O)c1-3)C2=O
Label value: FALSE
//
Compound: O=C(Nc1ccc(-n2cc(-c3ccncc3)c(-c3ccc(O)c(Cl)c3)n2)cc1)Nc1cc(C(F)(F)F)cc(C(F)(F)F)c1
Label value: FALSE
//
Compound: O=C(Nc1ccc(-n2cc(-c3ccncc3)c(-c3ccc(O)c(Cl)c3)n2)cc1)Nc1ccc(Cl)c(C(F)(F)F)c1
Label value: TRUE
//
Compound: [2H]c1nc(Nc2ncc(F)c(-c3cc(F)c4nc(C)n(C(C)C)c4c3)n2)c([2H])c([2H])c1CN1CCN(CC)CC1
Label value: FALSE
//
Compound: COc1cccc(-c2nc3sccn3c2-c2ccnc(NCCNC(=O)c3ccccc3)n2)c1
Label value: FALSE
//
Compound: O=C(CSc1nnc(-c2cc3c([nH]c4ccccc43)c(-c3cccc(O)c3)n2)n1-c1ccccc1)c1ccccc1
Label value: FALSE
//
Compound: O=C1c2ccccc2OC=C(c2ccccc2)N1CCCCNc1ccc(F)cc1
Label value: FALSE
//
Compound: O=C(O)c1ccc2nc(-c3ccc(OCCCCCOc4ccc(-c5nc6ccc(C(=O)O)cc6[nH]5)cc4)cc3)[nH]c2c1
Label value: FALSE
//
Compound: O=S1(=O)N(CCNc2nccc(-c3c(-c4cccc(O)c4)nc4sccn34)n2)CCN1Cc1ccccc1
Label value: FALSE
//
Compound: CN(C)CCNc1nc2ccccc2c2c(=O)c3ccccc3sc12
Label value: TRUE
